B1: tRNA (parent)
chain: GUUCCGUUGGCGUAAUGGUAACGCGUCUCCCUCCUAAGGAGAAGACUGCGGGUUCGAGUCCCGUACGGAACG

Variants of: B1
Method summary: yeast fitness relative to wild type (ratio to wild type); higher = fitter; tRNA-Arg(CCU), competitive growth, 37 C, YPD
This sample holds only a part of the variants without activity.
Experimental endpoint: yeast fitness
Just the number.

A20U A21G
0.947
C4U A69G
0.901
C4U U7A C30G C34G A40C
0.512

Request: Entry U19C U26C G44A has what yeast fitness?
Response: 0.521
